The binders listed here are annotated with their IC50.
- ASSAY SYSTEM: T1, schistosome legumain SmAE (Schistosoma mansoni asparaginyl endopeptidase) (Schistosoma mansoni, UniProt P09841 32-291)
- T1 sequence (looked up): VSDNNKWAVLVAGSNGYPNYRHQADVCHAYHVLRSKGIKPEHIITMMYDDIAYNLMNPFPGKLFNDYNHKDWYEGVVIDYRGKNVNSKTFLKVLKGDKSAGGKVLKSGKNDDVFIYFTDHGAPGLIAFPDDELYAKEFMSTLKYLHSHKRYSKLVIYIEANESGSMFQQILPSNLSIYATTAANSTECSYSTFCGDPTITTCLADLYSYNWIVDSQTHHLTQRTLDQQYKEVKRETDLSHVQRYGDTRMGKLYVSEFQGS
- ASSAY TEXT: cell-based or functional assay
Numbered stars: 1 amine (or outer) side, 2 acyl side, 3 side chain; on linkers, the order of the positions; unused ones are H or OH. Square brackets hold non-standard residues; d marks the D form. * marks the point of attachment. AAsn = aza-asparagine, NC(=O)CN(N[*:1])C(=O)[*:2]; trans‑EP = not defined here; Cbz = O=C(OCc1ccccc1)*
Answer format: number, then unit.

Query: Give its IC50 value. Item: Cbz-Ala-Ala-[AAsn]-{trans‑EP-CH2CH2Ph} (reading uncertain; also: printed as Cbz-Ala-Ala-AAsn-(trans)-EP-CH2CH2Ph) [Cbz-Ala-Ala-AAsn-(trans)-EP-CH2CH2Ph]
Response: 0.07 µM
